# credit: paper PMC11528066

- method.summary: Biodistribution (γ-counter)
- Assay type: in vivo, BALB/C nude mice
- run.conditions: male, BALB/C nude, mouse, tumor and brain, iv, with HN11-1 (block; amount not stated), total radioactivity; 60 min HN11-1 Block; mean ± SD, n = 3; read-out: Tumor/Brain ratio
Peptide text beside a SMILES is read from it. * marks the point of attachment. NOTA = O=C(O)CN1CCN(CC(=O)O)CCN(CC(=O)*)CC1; AEEEA = NCCOCCOCCOCC(=O)O
measured.property: tissue to tissue ratio at 1 h
One number for each entry.

Quick one: tissue to tissue ratio at 1 h of CC[C@H](C)[C@H](NC(=O)[C@H](CCCNC(=N)N)NC(=O)CNC(=O)[C@H](CCC(=O)O)NC(=O)[C@H](CC(N)=O)NC(=O)[C@H](Cc1ccc(O)cc1)NC(=O)[C@H](CCCNC(=N)N)NC(=O)[C@H](Cc1ccc(O)cc1)NC(=O)[C@H](Cc1c[nH]cn1)NC(=O)COCCOCCOCCNC(=O)CN1CCN(CC(=O)O)CCN(CC(=O)O)CC1)C(=O)N[C@@H](CCCNC(=N)N)C(=O)N[C@@H](CC(N)=O)C(=O)O [[^68Ga]Ga-HN11-1, metal not drawn] ({NOTA-AEEEA}-HYRYNEGRIRN-OH) ? 9.41

* * *

- method.summary: Biodistribution (γ-counter)
- Type: in vivo, BALB/C nude mice
- run.conditions: male, BALB/C nude, mouse, small intestine, iv, total radioactivity, 60 min HN11-1 Block; mean ± SD, n = 3; read-out: Small intestine uptake
- Procedure: Micro-PET imaging was conducted using an Inveon PET scanner (Siemens, Germany). Dynamic PET examine were acquired over the first 60 min following the simultaneous injection of 7.4 to 9.25 MBq (200 to 250 μCi) of [^68Ga]Ga-HN11-1 and [^68Ga]Ga-HN11-2. […] The samples were counted using the γ-counter for determining the %ID/g, presented as mean ± standard deviation (SD). […]
Peptide text beside a SMILES is read from it. * marks the point of attachment. NOTA = O=C(O)CN1CCN(CC(=O)O)CCN(CC(=O)*)CC1; AEEEA = NCCOCCOCCOCC(=O)O
measured.property: tissue uptake at 1 h (%ID/g)
One number for each entry, in %ID/g.

Quick one: tissue uptake at 1 h of CC[C@H](C)[C@H](NC(=O)[C@H](CCCNC(=N)N)NC(=O)CNC(=O)[C@H](CCC(=O)O)NC(=O)[C@H](CC(N)=O)NC(=O)[C@H](Cc1ccc(O)cc1)NC(=O)[C@H](CCCNC(=N)N)NC(=O)[C@H](Cc1ccc(O)cc1)NC(=O)[C@H](Cc1c[nH]cn1)NC(=O)COCCOCCOCCNC(=O)CN1CCN(CC(=O)O)CCN(CC(=O)O)CC1)C(=O)N[C@@H](CCCNC(=N)N)C(=O)N[C@@H](CC(N)=O)C(=O)O [[^68Ga]Ga-HN11-1, metal not drawn] ({NOTA-AEEEA}-HYRYNEGRIRN-OH) ? 0.34

* * *

- method.summary: Biodistribution (γ-counter)
- Format: in vivo, BALB/C nude mice
- run.conditions: male, BALB/C nude, mouse, brain, iv, total radioactivity, 90 min p.i.; mean ± SD, n = 3; read-out: Brain uptake
Peptide text beside a SMILES is read from it. * marks the point of attachment. NOTA = O=C(O)CN1CCN(CC(=O)O)CCN(CC(=O)*)CC1; AEEEA = NCCOCCOCCOCC(=O)O
measured.property: tissue uptake at 1.5 h (%ID/g)
Give bare numbers, in %ID/g.

Quick one: tissue uptake at 1.5 h of CC[C@H](C)[C@H](NC(=O)[C@H](CCCNC(=N)N)NC(=O)CNC(=O)[C@H](CCC(=O)O)NC(=O)[C@H](CC(N)=O)NC(=O)[C@H](Cc1ccc(O)cc1)NC(=O)[C@H](CCCNC(=N)N)NC(=O)[C@H](Cc1ccc(O)cc1)NC(=O)[C@H](Cc1c[nH]cn1)NC(=O)COCCOCCOCCNC(=O)CN1CCN(CC(=O)O)CCN(CC(=O)O)CC1)C(=O)N[C@@H](CCCNC(=N)N)C(=O)N[C@@H](CC(N)=O)C(=O)O [[^68Ga]Ga-HN11-1, metal not drawn] ({NOTA-AEEEA}-HYRYNEGRIRN-OH) ? 0.03
